- assayed-target: human recombinant TDO2 enzyme (Homo sapiens, UniProt P48775)
- Sequence (P48775 whole entry): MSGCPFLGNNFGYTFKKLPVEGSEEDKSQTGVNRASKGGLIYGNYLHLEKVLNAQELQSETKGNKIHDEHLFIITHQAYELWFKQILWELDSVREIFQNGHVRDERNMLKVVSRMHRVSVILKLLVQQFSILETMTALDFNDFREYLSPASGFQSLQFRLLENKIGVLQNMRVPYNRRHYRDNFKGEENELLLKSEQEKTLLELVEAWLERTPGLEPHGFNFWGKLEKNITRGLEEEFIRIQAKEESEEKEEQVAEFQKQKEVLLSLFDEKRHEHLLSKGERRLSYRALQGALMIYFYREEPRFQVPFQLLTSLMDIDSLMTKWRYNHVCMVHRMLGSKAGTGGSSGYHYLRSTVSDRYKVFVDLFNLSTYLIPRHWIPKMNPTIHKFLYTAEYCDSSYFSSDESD
- assay-comment: Assay for TDO2 enzymatic activity determination
- assay-context: human recombinant TDO2, L-Trp 1 mM, room temperature one hour, kynurenine absorbance at 480 nm
pIC50: −log10 of the molar value.
I'd appreciate it if you could supply pIC50 values for the items below.

**Query** What pIC50 value was documented for this compound, O=C(O)CCn1cc(-c2c[nH]c3cc(F)ccc23)cn1 [Example 16] ?
**Result** 5.00 to 6.00

**Query** Cool, now Fc1cc2[nH]cc(-c3cn[nH]c3)c2cc1F [Example 71]
**Result** > 6.00

**Query** Cool, now Fc1ccc2c(-c3cn[nH]c3)c[nH]c2c1 [Example 70, 6-fluoro-3-(1H-pyrazol-4-yl)-1H-indole]
**Result** > 6.00

**Query** Cool, now CNC(=O)[C@H]1C[C@H](n2cc(-c3c[nH]c4cc(F)ccc34)cn2)C1 [Example 64]
**Result** 5.00 to 6.00

**Query** Cool, now NC(=O)N1CC(n2cc(-c3c[nH]c4cc(F)ccc34)cn2)C1 [Example 4]
**Result** 5.00 to 6.00

###

I'd appreciate it if you could supply melting point values for the items below.

**Query** What melting point value was documented for this compound, CS(=O)(=O)CCn1cc(-c2c[nH]c3cc(F)ccc23)cn1 ?
**Result** 153.3 to 155.1 °C

**Query** Cool, now Fc1ccc2c(-c3cnn(C4CCNCC4)c3)c[nH]c2c1
**Result** 240.1 to 241.8 °C

**Query** Cool, now CN(C)CC(=O)N1CCC(n2cc(-c3c[nH]c4cc(F)ccc34)cn2)CC1
**Result** 193.7 to 196.1 °C

**Query** Cool, now CC(C)(C)C(=O)N1CCC(n2cc(-c3c[nH]c4cc(F)ccc34)cn2)CC1
**Result** 231 to 232 °C

**Query** Cool, now O=C(C1CC1)N1CCC(n2cc(-c3c[nH]c4cc(F)ccc34)cn2)CC1
**Result** 190.7 to 191.4 °C

###

I'd appreciate it if you could supply IC50 values for the items below.
- assayed-target: human recombinant TDO2 enzyme (Homo sapiens)
- assay-comment: Assay for TDO2 enzymatic activity determination
- assay-context: human recombinant TDO2, L-Trp 1 mM, room temperature one hour, kynurenine absorbance at 480 nm

**Query** What IC50 value was documented for this molecule, Fc1ccc2c(-c3cnn(C4CCNCC4)c3)c[nH]c2c1 ?
**Result** 1 to 10 µM

**Query** Cool, now O=C(O)[C@H]1C[C@H](n2cc(-c3c[nH]c4cc(F)ccc34)cn2)C1
**Result** 10 to 100 µM

**Query** Cool, now Fc1ccc2c(-c3cnn(-c4cccnn4)c3)c[nH]c2c1
**Result** 1 to 10 µM

**Query** Cool, now Cc1c(-c2c[nH]c3cc(F)ccc23)cnn1C (single isomer, unassigned)
**Result** 1 to 10 µM

**Query** Cool, now OCCN1CCC(Cn2cc(-c3c[nH]c4cc(F)ccc34)cn2)CC1
**Result** < 1 µM

**Query** Cool, now CS(=O)(=O)NCCn1cc(-c2c[nH]c3cc(F)ccc23)cn1
**Result** 1 to 10 µM

**Query** Cool, now CN(C)CCNC(=O)CCn1cc(-c2c[nH]c3cc(F)ccc23)cn1
**Result** 1 to 10 µM

**Query** Cool, now CC(=O)N1CCC(Cn2cc(-c3c[nH]c4cc(F)ccc34)cn2)CC1
**Result** 1 to 10 µM

**Query** Cool, now CC(=O)N1CCC(n2cc(-c3c[nH]c4cc(F)ccc34)cn2)CC1
**Result** 1 to 10 µM

###

- assayed-target: human recombinant TDO2 enzyme (Homo sapiens)
- assay-comment: Assay for TDO2 enzymatic activity determination
- assay-context: human recombinant TDO2, L-Trp 1 mM, room temperature one hour, kynurenine absorbance at 480 nm
I'd appreciate it if you could supply IC50 values for the items below.

**Query** What IC50 value was documented for this compound, COCC(=O)N1CCC(n2cc(-c3c[nH]c4cc(F)ccc34)cn2)CC1 [Example 85] ?
**Result** 1000 to 10000 nM

**Query** Cool, now Fc1ccc2c(-c3cnn(-c4ccccn4)c3)c[nH]c2c1 [Example 111]
**Result** < 1000 nM

**Query** Cool, now Fc1ccc2c(-c3cnn(-c4cccnc4)c3)c[nH]c2c1 [Example 112]
**Result** < 1000 nM

**Query** Cool, now CN(C)C(=O)CCn1cc(-c2c[nH]c3cc(F)ccc23)cn1 [Example 15]
**Result** 1000 to 10000 nM

**Query** Cool, now O=C1CCCN1CCn1cc(-c2c[nH]c3cc(F)ccc23)cn1 [Example 30]
**Result** 1000 to 10000 nM

###

- assayed-target: human recombinant TDO2 enzyme (Homo sapiens, UniProt P48775)
- assay-comment: Assay for TDO2 enzymatic activity determination
- assay-context: human recombinant TDO2, L-Trp 1 mM, room temperature one hour, kynurenine absorbance at 480 nm
pIC50: −log10 of the molar value.
reported-property: pIC50

**Query** What pIC50 value was documented for this molecule, OCCn1cc(-c2c[nH]c3cc(F)ccc23)cn1 [Example 26] ?
**Result** > 6.00

**Query** Cool, now CN(C)CC(=O)N1CCC(n2cc(-c3c[nH]c4cc(F)ccc34)cn2)CC1 [Example 83]
**Result** 5.00 to 6.00

**Query** Cool, now CC(Cn1cc(-c2c[nH]c3cc(F)ccc23)cn1)C(N)=O (single isomer, unassigned) [Example 35]
**Result** 5.00 to 6.00

**Query** Cool, now O[C@H]1CC[C@H](n2cc(-c3c[nH]c4cc(F)ccc34)cn2)CC1 [Example 69]
**Result** 5.00 to 6.00

**Query** Cool, now Fc1ccc2c(-c3cnn(CCN4CCCC4)c3)c[nH]c2c1 [Example 29]
**Result** 5.00 to 6.00

**Query** Cool, now CC(Cn1cc(-c2c[nH]c3cc(F)ccc23)cn1)C(N)=O (single isomer, unassigned) [Example 36]
**Result** 5.00 to 6.00

**Query** Cool, now CC(=O)N1CCN(CCn2cc(-c3c[nH]c4cc(F)ccc34)cn2)CC1 [Example 28]
**Result** 4.00 to 5.00

**Query** Cool, now O=C(O)CCC(=O)N1CCC(Cn2cc(-c3c[nH]c4cc(F)ccc34)cn2)CC1 [Example 50]
**Result** 4.00 to 5.00

###

- assayed-target: murine mastocytoma P815 cells overexpressing hTDO2 (Homo sapiens, UniProt P48775)
- Sequence (P48775 whole entry): as above
- assay-comment: Cellular assay for TDO2 activity determination
- assay-context: P815 cells overexpressing hTDO2, overnight incubation at 37° C., kynurenine absorbance at 480 nm
reported-property: IC50

**Query** Given the entry CC(=O)N1CCC(Cn2cc(-c3c[nH]c4cc(F)ccc34)cn2)CC1 [Example 51] , what IC50 was observed with murine mastocytoma P815 cells overexpressing hTDO2 (Homo sapiens, UniProt P48775)?
**Result** < 1000 nM

**Query** Cool, now CN1CCC(Cn2cc(-c3c[nH]c4cc(F)ccc34)cn2)CC1 [Example 53]
**Result** < 1000 nM

**Query** Cool, now OCCn1cc(-c2c[nH]c3cc(F)ccc23)cn1 [Example 26]
**Result** < 1000 nM

**Query** Cool, now Cc1c(-c2c[nH]c3cc(F)ccc23)cnn1C (single isomer, unassigned) [Example 74]
**Result** < 1000 nM

**Query** Cool, now Nc1ccc(-n2cc(-c3c[nH]c4cc(F)ccc34)cn2)nn1 [Example 109]
**Result** < 1000 nM

**Query** Cool, now Fc1ccc2c(-c3cnn(-c4ccnnc4)c3)c[nH]c2c1 [Example 110]
**Result** 1000 to 10000 nM

**Query** Cool, now Fc1cc2[nH]cc(-c3cn[nH]c3)c2cc1F [Example 71]
**Result** < 1000 nM

###

I'd appreciate it if you could supply IC50 values for the items below.
- assayed-target: murine mastocytoma P815 cells overexpressing hTDO2 (Homo sapiens, UniProt P48775)
- assay-comment: Cellular assay for TDO2 activity determination
- assay-context: P815 cells overexpressing hTDO2, overnight incubation at 37° C., kynurenine absorbance at 480 nm

**Query** What IC50 value was documented for this compound, Cn1cc(-c2c[nH]c3cc(F)ccc23)cn1 ?
**Result** < 1 µM

**Query** Cool, now CN1CCC(n2cc(-c3c[nH]c4cc(F)ccc34)cn2)CC1
**Result** < 1 µM

**Query** Cool, now Fc1ccc2c(-c3cnn(C4CCNCC4)c3)c[nH]c2c1
**Result** < 1 µM

**Query** Cool, now Fc1ccc2c(-c3cnn(CC4CCOCC4)c3)c[nH]c2c1
**Result** 1 to 10 µM

**Query** Cool, now FCCN1CCC(Cn2cc(-c3c[nH]c4cc(F)ccc34)cn2)CC1
**Result** < 1 µM

**Query** Cool, now O[C@H]1CC[C@H](n2cc(-c3c[nH]c4cc(F)ccc34)cn2)CC1
**Result** 1 to 10 µM

**Query** Cool, now Fc1ccc2c(-c3cnn(-c4cccnc4)c3)c[nH]c2c1
**Result** < 1 µM

**Query** Cool, now CC(Cn1cc(-c2c[nH]c3cc(F)ccc23)cn1)C(N)=O (single isomer, unassigned) [Example 35]
**Result** < 1 µM

**Query** Cool, now COCC(=O)N1CCC(n2cc(-c3c[nH]c4cc(F)ccc34)cn2)CC1
**Result** 1 to 10 µM

**Query** Cool, now NC(=O)Cn1cc(-c2c[nH]c3cc(F)ccc23)cn1
**Result** 1 to 10 µM

**Query** Cool, now Fc1ccc2c(-c3cnn(C4CNC4)c3)c[nH]c2c1
**Result** < 1 µM

**Query** Cool, now NC(=O)CCn1cc(-c2c[nH]c3cc(F)ccc23)cn1
**Result** < 1 µM

**Query** Cool, now Fc1ccc2c(-c3cnn(CCN4CCCC4)c3)c[nH]c2c1
**Result** < 1 µM

**Query** Cool, now Fc1ccc2c(-c3cnn(CC4CCN(C5CC5)CC4)c3)c[nH]c2c1
**Result** < 1 µM

**Query** Cool, now Fc1ccc2c(-c3cnn(-c4cccnn4)c3)c[nH]c2c1
**Result** < 1 µM

**Query** Cool, now CS(=O)(=O)CCn1cc(-c2c[nH]c3cc(F)ccc23)cn1
**Result** < 1 µM

**Query** Cool, now CNCCn1cc(-c2c[nH]c3cc(F)ccc23)cn1
**Result** 1 to 10 µM

Reference for the values: patent US9126984B2
